Where do these numbers come from? They come from ChEMBL document CHEMBL1138583.

- TARGET OF ASSAY: Tyrosine-protein kinase SYK (Homo sapiens, UniProt P43405)
- ASSAY: Inhibition of recombinant Syk
MEASURE NAME: pIC50
pIC50 field: float, defined as -log10 of concentration (mol/L).

Consider the worked cases shown below.
1) c1ccc(COc2cccc(Nc3nccc(-c4nccs4)n3)c2)cc1 | 6.30
2) COc1cc(/C=C/[N+](=O)[O-])ccc1OC(=O)c1ccccc1 | 5.42
3) COc1c(C[C@@H](C)OC(=O)Oc2ccc(O)cc2)c2c3c(C[C@@H](C)OC(=O)c4ccccc4)c(OC)c(=O)c4c(O)cc(OC)c(c5c(OC)cc(O)c(c1=O)c52)c43 | 5.96

# return recorded pIC50 for entry N#C/C(=C\c1ccc(O)c(O)c1)C(N)=S
4.42
